System: AA8
measurement.notes: cytotoxicity, 4 h aerobic drug exposure, AA8
Type: cell-based, Chinese hamster
condition.notes: 4 h aerobic exposure; mean ± sem; read-out: IC50 AA8
pIC50: −log10 of the molar value.
quantity: pIC50

- molecule: "C1CNCCNCCNCCN1 [Cyclen, reference compound]"
  measured: 1.88

###

System: SKOV3
measurement.notes: cytotoxicity, 4 h aerobic drug exposure, SKOV3
Assay type: cell-based, human
condition.notes: Homo sapiens, SK-OV-3; 4 h aerobic exposure; mean ± sem; read-out: IC50 SKOV3

- compound: "COc1cc2cc(C(=O)N3CC(CCl)c4c3cc(N)c3ncccc43)[nH]c2c(OC)c1OC (stereo not shown)"
  unit.of.measure: "nM"
  IC50: 12
